procedure_summary: Cytotoxicity, MTS assay, normal kidney cells
condition: pig, LLC-PK1 kidney cells
assay_metric: viability at 72 h, 50 µM (%)
Supply the numeric figure in %, leaving out any unit text.

So for N=C(N)NCCC[C@@H]1NC(=O)[C@H](CCCCNC(=O)[C@H](Cc2c[nH]c3ccccc23)NC(=O)[C@H](Cc2c[nH]c3ccccc23)NC(=O)[C@H](Cc2c[nH]c3ccccc23)NC(=O)[C@H](Cc2c[nH]c3ccccc23)NC(=O)[C@H](Cc2c[nH]c3ccccc23)NC(=O)[C@H](Cc2c[nH]c3ccccc23)NC(=O)[C@H](Cc2c[nH]c3ccccc23)NC(=O)CCN)NC(=O)[C@H](CCCNC(=N)N)NC(=O)[C@H](CCCNC(=N)N)NC(=O)[C@H](CCCNC(=N)N)NC(=O)[C@H](CCCNC(=N)N)NC1=O [[R5K]W7A] , the logged viability at 72 h, 50 µM turned out to be 97

Hey, just so you know, these numbers are from patent US12070505B2.
